Documented inhibition across a set of compounds
- test_system: Proto-oncogene tyrosine-protein kinase Src (Homo sapiens)
- Sequence (P12931 2-536 limits assumed): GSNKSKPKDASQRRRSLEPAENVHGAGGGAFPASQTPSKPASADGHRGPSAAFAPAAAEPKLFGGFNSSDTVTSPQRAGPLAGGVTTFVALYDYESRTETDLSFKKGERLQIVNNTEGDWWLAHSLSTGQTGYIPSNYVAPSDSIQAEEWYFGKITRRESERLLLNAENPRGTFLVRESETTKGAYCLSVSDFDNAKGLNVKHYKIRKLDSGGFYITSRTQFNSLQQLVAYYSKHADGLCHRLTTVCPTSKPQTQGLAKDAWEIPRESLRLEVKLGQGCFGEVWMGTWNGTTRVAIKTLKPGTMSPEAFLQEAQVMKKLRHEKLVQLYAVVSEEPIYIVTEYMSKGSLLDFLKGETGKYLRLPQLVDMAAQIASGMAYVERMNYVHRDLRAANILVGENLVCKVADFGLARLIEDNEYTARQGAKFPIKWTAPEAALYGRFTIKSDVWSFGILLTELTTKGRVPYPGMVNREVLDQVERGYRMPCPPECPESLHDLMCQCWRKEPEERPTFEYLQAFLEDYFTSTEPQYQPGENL
- procedure_details: Inhibition of Src Kinase at 1 uM

Guide cases for inhibition, answers given:
line_notation=COc1cc(OC)c2c(Nc3ccc(Cl)cc3Cl)c(C#N)cnc2c1 measured_result=52%
line_notation=COc1cc2ncc(C(N)=O)c(Nc3ccc(Cl)cc3Cl)c2cc1OC measured_result="< 20%"
line_notation=N#Cc1cnc2ccccc2c1Nc1ccc(Cl)cc1Cl measured_result="< 20%"
line_notation=COc1cc2ncc(C(=O)O)c(Nc3ccc(Cl)cc3Cl)c2cc1OC measured_result="< 20%"
line_notation=COc1cc2ncc(CO)c(Nc3ccc(Cl)cc3Cl)c2cc1OC measured_result="< 20%"
line_notation=CCOC(=O)c1cnc2cc(OC)c(OC)cc2c1Nc1ccc(Cl)cc1Cl measured_result="< 20%"

// sample `COc1cccc2c(Nc3ccc(Cl)cc3Cl)c(C#N)cnc12` , its inhibition was < 20%

// sample `COc1cc2/c(=N/c3ccc(Cl)cc3Cl)c(C#N)cn(C)c2cc1OC` , its inhibition was < 20%

// sample `COc1cc2ncc(C#N)c(Oc3ccc(Cl)cc3Cl)c2cc1OC` , its inhibition was 37%

// sample `COc1cc2ncc(C#N)c(N(C)c3ccc(Cl)cc3Cl)c2cc1OC` , its inhibition was 32%

// sample `COc1cc2ncc(C#N)c(NCc3ccc(Cl)cc3Cl)c2cc1OC` , its inhibition was 24%

// sample `COc1cc2ncc(C#N)c(NC(=O)c3ccc(Cl)cc3Cl)c2cc1OC` , its inhibition was < 20%

// sample `N#Cc1cnc2cc(O)c(O)cc2c1Nc1ccc(Cl)cc1Cl` , its inhibition was < 20%
